Values from PubChem BioAssay (EPA / NIEHS)

assay: ATG_AP_2_CIS: Attagene CIS-FACTORIAL HepG2 Assay for human Activator Protein 2 (AP-2) (AID 2282932); details: HepG2 AP-2 cis-reporter, Attagene transcription factor profiling; actives raise or lower the signal
The source made the active and inactive calls. Rule for the calls: active = hit-call score of the fitted dose curve at least 0.9, where 1 is the maximum; inactive = score below 0.9.
Possible outcomes: yes (1) = active, no (0) = inactive

>>> category("N#C/C=C/c1ccccc1")
"no (0)"
>>> category("NC(=O)C(F)(F)C(F)(F)F")
"no (0)"
>>> category("O=C(O)C(Cl)Cl")
"no (0)"
>>> category("CCCCOCC1CO1 (centres undefined)")
"no (0)"
>>> category("CCN(CC)c1ccccc1")
"no (0)"
>>> category("O=NN1CCCC1")
"no (0)"
>>> category("Nc1cc2c3c(c1)C(c1ccccc1)=N[C@@H](NC(=O)c1cccnc1)C(=O)N3CC2")
"yes (1)"
>>> category("CC1(C)CN=C(NN=C(/C=C/c2ccc(C(F)(F)F)cc2)/C=C/c2ccc(C(F)(F)F)cc2)NC1")
"no (0)"
>>> category("CCOP(=S)(S)OCC")
"no (0)"
>>> category("O=P1(N(CCCl)CCCl)NCCCO1 (centres undefined)")
"no (0)"
>>> category("Cc1ccc([N+](=O)[O-])cc1C")
"no (0)"
>>> category("CCCCN(CC)C(=O)SCCC")
"no (0)"
>>> category("CCC(C)(C)c1ccc(O)cc1")
"no (0)"
>>> category("O=C(O)C1C(C(=O)O)C2(Cl)C(Cl)=C(Cl)C1(Cl)C2(Cl)Cl (centres undefined)")
"no (0)"

----------
test system: Sodium/Iodide Symporter (NIS), SLC5A5 (gene 6528); test: CPHEA_Stoker_NIS_Inhibition_RAIU: CPHEA's Radioactive Iodide Uptake (RAIU) Assay for Sodium/Iodide Symporter (NIS) Inhibition, Stoker and Laws Labs (AID 2283841)
Inconclusive results are not listed. Activity calls are given as the source filed them. The calls were made as follows: active = hit-call score of the fitted dose curve at least 0.9, where 1 is the maximum; inconclusive = response in the unintended direction; inactive = score below 0.9.
Possible outcomes: active, inactive

>>> category("OCC(F)(F)OC(F)(F)C(F)(F)OC(F)(F)C(F)(F)OC(F)(F)F")
"inactive"
>>> category("OCC(F)(F)OC(F)(F)C(F)(F)OC(F)(F)C(F)(F)OC(F)(F)CO")
"inactive"
>>> category("CO/N=C(/C(=O)OC)c1ccccc1COc1ccccc1C")
"active"
>>> category("CCOP(=S)(OCC)SCSCC")
"inactive"
>>> category("O=NN1CCCC1")
"inactive"
>>> category("O=S(=O)(F)C(F)(F)C(F)(F)C(F)(F)C(F)(F)C(F)(F)C(F)(F)C(F)(F)C(F)(F)F")
"inactive"

----------
test: Tanguay_ZF_120hpf_MORT_legacy: (Legacy) Oregon State University Tanguay Lab 120 Hour Post-fertilization zebrafish Assay for Mortality (AID 2283633)
Activity calls are given as the source filed them. The calls were made as follows: active = hit-call score of the fitted dose curve at least 0.9, where 1 is the maximum; inconclusive = response in the unintended direction; inactive = score below 0.9.
MEASURED_METRIC: outcome

>>> recorded_value("CCOc1ccc(C(C)(C)COCc2cccc(Oc3ccccc3)c2)cc1")
"inactive"
>>> recorded_value("COCCOCCO")
"inactive"
>>> recorded_value("CCNc1nc(Cl)nc(NC(C)(C)C)n1")
"inactive"
>>> recorded_value("ClC(Cl)c1ccccc1")
"inactive"
>>> recorded_value("CCOS(=O)(=O)OCC")
"inactive"
>>> recorded_value("CCOP(=S)(OCC)SCSCC")
"inactive"
>>> recorded_value("CCC(C)(C)c1ccc(O)cc1")
"inactive"
>>> recorded_value("CC(C)(C)OOC(C)(C)C")
"inactive"
